Where do these numbers come from? They come from patent US11566007B2.

# experimental_target: KRAS G12D (Homo sapiens (Human), UniProt P01116+P62937, G12D)
# Sequence (P01116-2 other isoform, or with tags, fused parts or gaps G12D): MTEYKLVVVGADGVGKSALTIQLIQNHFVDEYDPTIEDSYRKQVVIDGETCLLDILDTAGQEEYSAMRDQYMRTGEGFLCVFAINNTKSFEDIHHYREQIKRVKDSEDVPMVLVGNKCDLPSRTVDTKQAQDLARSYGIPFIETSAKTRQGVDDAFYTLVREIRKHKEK
# Sequence (P62937 whole entry): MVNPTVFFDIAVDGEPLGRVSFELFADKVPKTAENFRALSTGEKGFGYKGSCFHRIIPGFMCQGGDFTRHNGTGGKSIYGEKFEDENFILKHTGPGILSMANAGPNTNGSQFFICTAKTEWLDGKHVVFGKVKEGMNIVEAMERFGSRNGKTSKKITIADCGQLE
# method_description: Ras-Raf (BRAF RBD) disruption / FRET / MOA assay, KRAS G12D
# Type: biochemical
# condition_notes: Ras-Raf disruption/FRET/MOA assay; class symbols; read-out: KRAS G12D FRET data IC50
pIC50: −log10 of the molar value.
measurement_type: pIC50

INSERT INTO measurements (compound, obs_value) VALUES
  ('C=CC(=O)N1CC[C@]2(CCN(C(=O)N(C)[C@H](C(=O)N[C@H]3Cc4nc(cs4)-c4ccc5c(c4)c(c(-c4cccnc4[C@H](C)OC)n5CC)CC(C)(C)COC(=O)[C@@H]4CCCN(N4)C3=O)C(C)C)C2)C1 (atropisomer, axis not shown) [Example A719]', '6.00 to 7.00');

# next compound below
INPUT: Assign pIC50 to the following record: CCn1c(-c2cccnc2[C@H](C)OC)c2c3cc(ccc31)-c1csc(n1)C[C@H](NC(=O)[C@H](C(C)C)N(C)C(=O)[C@H]1CCN(C(=O)C#CC(C)(C)N(C)C)C1)C(=O)N1CCC[C@H](N1)C(=O)OCC(C)(C)C2 (atropisomer, axis not shown) [Example A291]
OUTPUT: < 5.00
